Source: patent US20230192705A1

# TARGET_UNDER_TEST: SHP2 (Homo sapiens)
# Sequence (Q06124 whole entry): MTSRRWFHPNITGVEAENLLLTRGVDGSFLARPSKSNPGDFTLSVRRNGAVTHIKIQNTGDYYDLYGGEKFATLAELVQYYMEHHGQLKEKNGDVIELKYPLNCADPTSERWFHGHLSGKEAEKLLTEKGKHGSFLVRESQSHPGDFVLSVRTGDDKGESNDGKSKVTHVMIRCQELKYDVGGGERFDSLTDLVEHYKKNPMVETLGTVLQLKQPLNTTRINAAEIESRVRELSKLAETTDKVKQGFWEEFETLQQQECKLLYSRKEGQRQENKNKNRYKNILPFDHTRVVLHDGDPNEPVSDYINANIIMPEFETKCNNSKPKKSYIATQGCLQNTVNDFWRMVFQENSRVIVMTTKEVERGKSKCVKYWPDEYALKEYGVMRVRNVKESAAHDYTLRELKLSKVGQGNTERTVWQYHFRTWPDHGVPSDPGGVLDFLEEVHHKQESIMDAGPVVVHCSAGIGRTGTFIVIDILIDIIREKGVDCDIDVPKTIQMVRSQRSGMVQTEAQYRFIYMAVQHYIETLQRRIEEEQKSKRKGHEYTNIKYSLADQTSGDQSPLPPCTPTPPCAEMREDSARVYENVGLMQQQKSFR
# ASSAY: SHP2 allosteric inhibitor enzyme activity assay (DiFMUP fluorescence)
# Type: biochemical
# RUN_CONDITIONS: class symbols
# Experimental: SHP2 is activated by the binding of a bis-tyrosyl-phosphorylated peptide to its Src homologous 2 (SH2) domain. […] The catalytic activity of SHP2 was monitored using the alternative DiFMUP in a rapid fluorescence assay format. […] The dose-response curve is fitted with GraphPad Prism software and IC50 was calculated by the “log[inhibitor] vs. response-variable slope” program.
# IC50 listing for each entry below

N[C@@H]1c2ccccc2CC12CCN(c1nc3[nH]nc(C4(c5ccnc(NC6CC6)c5)CC4)c3c(=O)[nH]1)CC2 [Example 29] ... ≤ 0.02 µM
C[C@@H]1OCC2(CCN(c3nc4[nH]nc(C5(c6nncs6)CC5)c4c(=O)[nH]3)CC2)[C@@H]1N [Example 280] ... > 0.06 µM

-- ask I am curious: what IC50 value has been reported for N[C@@H]1c2ccccc2CC12CCN(c1nc3[nH]nc(C4(c5ccnc(Cl)c5Cl)CC4)c3c(=O)[nH]1)CC2 [Example 48] ?
-- reply ≤ 0.02 µM

-- ask For the compound shown here, N[C@@H]1c2ccccc2CC12CCN(c1nc3[nH]nc(C4(c5ccnc(-c6ccccn6)c5)CC4)c3c(=O)[nH]1)CC2 [Example 87] , give the reported IC50.
-- reply ≤ 0.02 µM

-- ask Return reported IC50; argument: C[C@@H]1OCC2(CCN(c3ncc4c(C5(c6ccccc6)CC5)n[nH]c4n3)CC2)[C@@H]1N [Example 267]
-- reply 0.02 to 0.06 µM

-- ask Name the recorded IC50 for COc1ccc(C2(c3n[nH]c4nc(N5CCC6(CC5)CO[C@@H](C)[C@H]6N)[nH]c(=O)c34)CC2)cc1 [Example 304] .
-- reply 0.02 to 0.06 µM

-- ask I'd like to know its IC50. The compound in question is N[C@@H]1c2ccccc2CC12CCN(c1nc3[nH]nc(C4(c5ccccc5OC(F)(F)F)CC4)c3c(=O)[nH]1)CC2 [Example 16]
-- reply ≤ 0.02 µM

-- ask Reported IC50, compound N[C@@H]1c2ccccc2CC12CCN(c1nc3[nH]nc(C4=C(F)CCc5nc(Cl)ccc54)c3c(=O)[nH]1)CC2 [Example 188] : ____
-- reply ≤ 0.02 µM

-- ask Entry N[C@@H]1c2ccccc2CC12CCN(c1nc3[nH]nc(C4=CCC5(CC5)c5ncccc54)c3c(=O)[nH]1)CC2 [Example 133] : reported IC50 = ?
-- reply ≤ 0.02 µM

-- ask # query: IC50 of entry C[C@@H]1OCC2(CCN(c3nc4[nH]nc(C5(c6ccnc(N)c6Cl)CC5)c4c(=O)[nH]3)CC2)[C@@H]1N [Example 291]
-- reply 0.02 to 0.06 µM

-- ask Returns the measured IC50 for the input compound. Input: C[C@@H]1OCC2(CCN(c3nc4[nH]nc(C5(c6ccc(O)cc6)CC5)c4c(=O)[nH]3)CC2)[C@@H]1N [Example 311]
-- reply 0.02 to 0.06 µM

-- ask So what's the measured IC50 for this one? C[C@@H]1OCC2(CCN(c3nc4[nH]nc(C5(c6ccc(Cl)cc6Cl)CC5)c4c(=O)[nH]3)CC2)[C@@H]1N [Example 313]
-- reply > 0.06 µM

-- ask Quick one: IC50 for C[C@@H]1OCC2(CCN(c3cnc(C4(c5ccccc5)CC4)cn3)CC2)[C@@H]1N [Example 258] ?
-- reply > 0.06 µM

-- ask What value of IC50 has been reported for the following compound? N[C@@H]1c2ccccc2CC12CCN(c1nc3[nH]nc(C4=CCC(F)(F)c5ncccc54)c3c(=O)[nH]1)CC2 [Example 169]
-- reply ≤ 0.02 µM
